System: filamentous bacterial cells
Experiment: Limited search of carbon sources: colony formation of filamentous bacterial cells from a soil suspension on carbon-source agar medium
Settings: soil suspension smeared on agar medium with the carbon source, 30° C., 5 days; relative value, carbon source-free medium = 100%
Assay Metric: Filamentous bacterial cells Average number of grown colonies ± standard error
Answers without a unit are incomplete; give the number and then its unit.

Consider the reported Filamentous bacterial cells Average number of grown colonies ± standard error for these compounds:
(Q) Form: Entry = O[C@H]1[C@H](O)[C@@H](O)[C@H](O)[C@@H](O)[C@H]1O | System = filamentous bacterial cells | Filamentous bacterial cells Average number of grown colonies ± standard error = ____
(A) 0 ± 0%

(Q) Same again, this time with OC[C@H]1O[C@H](O[C@H]2O[C@H](CO)[C@@H](O)[C@H](O)[C@H]2O)[C@H](O)[C@@H](O)[C@@H]1O
(A) 156 ± 5%

(Q) Same again, this time with O=C([O-])CCCCC(=O)[O-].[Na+].[Na+] [Sodium adipate]
(A) 36 ± 18%

// each compound listed below needs its Filamentous bacterial cells Average number of grown colonies ± standard error
1. CC(C)C[C@H](N)C(=O)O
2. OC[C@H]1O[C@@](CO)(O[C@H]2O[C@H](CO)[C@@H](O)[C@H](O)[C@H]2O)[C@@H](O)[C@@H]1O
3. O=C(O)[C@@H]1CCCN1

(A)
["67 ± 141%", "211 ± 15%", "11 ± 9%"]

====

System: filamentous bacterial cells
Assay: Limited search of carbon sources: colony formation of filamentous bacterial cells from a soil suspension on carbon-source agar medium
Conditions: soil suspension smeared on agar medium with the carbon source, 30° C., 5 days; relative value, carbon source-free medium = 100%
Where Filamentous bacterial cells Average number of grown colonies ± standard error equals or exceeds 40%, the correct label is TRUE; where it does not, the label is FALSE.

Completed entries (count: 8):
(Q) Hello, I need to know if O=C[C@@H](O)[C@H](O)[C@H](O)CO has measured Filamentous bacterial cells Average number of grown colonies ± standard error not below 40%. Thanks!
(A) TRUE

(Q) Same again, this time with CSCC[C@H](N)C(=O)O
(A) FALSE

(Q) Same again, this time with OC[C@@H](O)[C@@H](O)[C@@H](O)CO
(A) TRUE

(Q) Same again, this time with O=C(CO)[C@H](O)[C@@H](O)[C@H](O)CO
(A) TRUE

(Q) Same again, this time with N[C@@H](CCC(=O)O)C(=O)O
(A) TRUE

(Q) Same again, this time with N[C@@H](CC(=O)O)C(=O)O
(A) FALSE

(Q) Same again, this time with CC[C@H](C)[C@H](N)C(=O)O
(A) FALSE

(Q) Same again, this time with O=C(O)C(O)C(O)C(=O)O (stereo not drawn)
(A) TRUE

Switching to the query record.
(Q) Hello, I need to know if NCC(=O)O has measured Filamentous bacterial cells Average number of grown colonies ± standard error not below 40%. Thanks!
(A) TRUE

====

System: filamentous bacterial cells
Assay: Limited search of carbon sources: colony formation of filamentous bacterial cells from a soil suspension on carbon-source agar medium
Details: soil suspension smeared on agar medium with the carbon source, 30° C., 5 days; relative value, carbon source-free medium = 100%
Assay Metric: Filamentous bacterial cells Average number of grown colonies ± standard error
Answers without a unit are incomplete; give the number and then its unit.

Consider the reported Filamentous bacterial cells Average number of grown colonies ± standard error for these molecules:
(Q) // query Filamentous bacterial cells Average number of grown colonies ± standard error value for entry NCCCC[C@H](N)C(=O)O
(A) 33 ± 14%

(Q) Same again, this time with OC[C@H]1O[C@@H](O[C@H]2[C@H](O)[C@@H](O)C(O)O[C@@H]2CO)[C@H](O)[C@@H](O)[C@H]1O (stereo partly drawn)
(A) 128 ± 2%

We next turn to a different molecule, shown below.
(Q) // query Filamentous bacterial cells Average number of grown colonies ± standard error value for entry NC(=O)CC[C@H](N)C(=O)O
(A) 100 ± 0%
